TESTED ON: Histone deacetylase 3 (Homo sapiens)
MEASUREMENT PROTOCOL: HDAC3 deacetylase inhibitors, primary screen, biochemical, fluorescence, cell-free homogeneous (AID 2718)
MEASUREMENT CONDITIONS: recombinant HDAC3, fluorogenic peptide/trypsin coupled, at 8.3 µM, active compounds read high
Hit rate of the full screen: of about 320,000 compounds, about 480 (0.15%) were called active. Another 1% or so got no clear call; they are omitted. The list comes from a sample in which actives are over-represented; it also holds close analogues and randomly drawn compounds.
PARAMETER MEASURED: inhibition (%)
Record the value in %, omitting the unit from your answer.

// fetch inhibition given entry COc1ccc(C(=O)COC(=O)C(O)c2ccccc2)c(OC)c1 (stereo not given)
8.77

// fetch inhibition given entry CCOc1cc2c(cc1OCC)C(C(=O)O)C(c1ccc(OC)c(O)c1)N(C)C2=O (stereo not given)
-1.3

// fetch inhibition given entry CCCCN(C(=O)C1CCC1)c1c(N)n(Cc2ccccc2)c(=O)[nH]c1=O
-3.39

// fetch inhibition given entry Cn1c(N)c(C(=O)COC(=O)c2ccc3ccccc3c2)c(=O)n(C)c1=O
-3.95

// fetch inhibition given entry Cc1nc(CC(=O)NNS(=O)(=O)c2ccc(F)c(Cl)c2)cs1
-5.91

// fetch inhibition given entry Cc1ccc(C(=O)N2CCC(n3nccc3NC(=O)Nc3cccc(F)c3)CC2)cn1
4.68

// fetch inhibition given entry CCN(CC)CCCNC(=S)N(CCO)Cc1cc2cc3c(cc2[nH]c1=O)OCO3
3.65

// fetch inhibition given entry NC[C@H](Cc1ccccc1)NCCc1cc(C(F)(F)F)cc(C(F)(F)F)c1
3.54

// fetch inhibition given entry Nn1c(SCC(=O)NC2CCCc3ccccc32)nnc1C1CC1 (stereo not given)
2.63

// fetch inhibition given entry Cc1nn(C)c(C)c1CN(C(=O)CCc1nnc(Cc2c[nH]c3ccccc23)o1)C(C)C
-1.72

// fetch inhibition given entry COc1ccc2nc3n(c(=O)c2c1)-c1cc(C)ccc1C(=O)NC3Cc1ccc(O)cc1 (stereo not given)
4.49

// fetch inhibition given entry O=C(COC(=O)c1cc[n+]([O-])cc1)Nc1ccc(Cl)c(C(F)(F)F)c1
-1.85

// fetch inhibition given entry O=C(Nc1cc(S(=O)(=O)Nc2ccc(Cl)cc2)ccc1O)c1ccc(F)cc1F
8.91

// fetch inhibition given entry COc1cccc(NC(=O)C2c3cc(OC)c(OC)cc3C(=O)N(C)C2c2cccnc2)c1 (stereo not given)
35.6

// fetch inhibition given entry CCN1N=C(c2ccccc2)CCC1=O
-1.92

// fetch inhibition given entry CC(OC(=O)c1cc2ccccc2[nH]1)C(=O)N(C)c1ccccc1 (stereo not given)
-8.32

// fetch inhibition given entry Cc1ccc(C(=O)NNC(=O)CSc2nnc3ccccn23)cc1
-19.4

// fetch inhibition given entry CCOC(=O)C1(Cc2cccc(OC)c2)CCN(Cc2csc(C(C)=O)c2)CC1
0.985

// fetch inhibition given entry N=c1c2c3c(sc2ncn1N)CCCCC3
-7.57

// fetch inhibition given entry Cc1nc2ccc(NC(=O)c3cccc(S(=O)(=O)N4CCOCC4)c3)cc2s1
-5.18

// fetch inhibition given entry COc1cc(NC(=O)c2[nH]cnc2C(N)=O)cc(C(=O)Nc2cccc(C(F)(F)F)c2)c1
-8.89

// fetch inhibition given entry CC(C)n1cnc2c(NCc3ccccc3)cc(N[C@@H](CO)Cc3ccccc3)cc21
11.4

// fetch inhibition given entry O=C(Nc1cc(S(=O)(=O)N2CCCCC2)ccc1Cl)C1COc2ccccc2O1 (stereo not given)
-0.0794

// fetch inhibition given entry CSc1cccc(NC(=S)N(C(C)C)C(C)c2ccccn2)c1 (stereo not given)
-0.0363

// fetch inhibition given entry COc1ccccc1-c1sc2ccccc2c1C#CC1(O)CCCCC1
14.4

// fetch inhibition given entry COc1cccc(NC(=O)C2C(c3ccccc3)C2(Cl)Cl)c1 (stereo not given)
10.8

// fetch inhibition given entry O=C(N=C1SC2CS(=O)(=O)CC2N1c1ccccc1)c1ccccc1 (stereo not given)
3.67

// fetch inhibition given entry Cc1[nH]c2ccccc2c1SCC(=O)Nc1nccs1
-0.0176

// fetch inhibition given entry CCOC(=O)C1=C(CC)Nc2ccccc2N=C1N
5.45

// fetch inhibition given entry O=C(Nc1ccccc1)O/N=C1/CCCc2occc21
-0.26

// fetch inhibition given entry O=C(COC(=O)c1cccc(Cl)c1)NC(=O)NCc1ccccc1
1.01

// fetch inhibition given entry N=c1c2c3c(sc2ncn1N)CCCC3
9.19

// fetch inhibition given entry CC1=CCC2C(=O)N(c3cccc(C(=O)NC(C)c4ccccc4)c3)C(=O)C2C1 (stereo not given)
-6.38

// fetch inhibition given entry CC(=O)c1ccc(NC(=O)CSc2nc3ccccc3c(=O)n2CCCN2CCOCC2)cc1
12.2

// fetch inhibition given entry Cc1ccc(NC(=O)C2CC2)cc1S(=O)(=O)N1CCOCC1
1.59

// fetch inhibition given entry O=C(COC(=O)c1ccco1)Nc1ccc(Cl)cn1
0.924

// fetch inhibition given entry O=C(Nc1nnc(-c2ccccc2)o1)c1cccc(S(=O)(=O)N2CCOCC2)c1
-1.1

// fetch inhibition given entry S=c1[nH]nc2c3c4c(sc3ncn12)CCCC4
42.4

// fetch inhibition given entry COc1cc(OC)cc(-c2cc3ccc(F)cc3cn2)c1
5.76

// fetch inhibition given entry O=C(Cc1ccccc1)Nc1c(Cl)ccc2nsnc12
2.55

// fetch inhibition given entry O=C(N/N=C/c1ccccn1)c1ccc(S(=O)(=O)N2CCCCCC2)cc1
-5.66

// fetch inhibition given entry COc1cc(CN2CCC(C(N)=O)CC2)ccc1OCc1ccccc1
-3.96

// fetch inhibition given entry CN(C(=O)c1ccccc1)c1nccnc1C#N
2.83

// fetch inhibition given entry COc1ccc(CC(NC(C)=O)C(=O)N2CCN(C(=O)Nc3cccc(Cl)c3)CC2)cc1OC (stereo not given)
1.26

// fetch inhibition given entry CCCCOc1ccc(N(CC(=O)NCC2CCCO2)C(=O)CCC(=O)Nc2cc(C)ccn2)cc1 (stereo not given)
1.38
